# Tested on: Escherichia coli
# experimental_protocol: Antibacterial activity against Escherichia coli at 160 ug/ml after 24 hrs by Oxford cup assay
# Format: functional
# assay_conditions: read-out: IZ
readout: zone of inhibition at 160 µg/mL (mm)
Give bare numbers, in mm.

Measured zone of inhibition at 160 µg/mL of C=C[C@]1(C)C[C@@H](OC(=O)CSC(C)(C)CNC(=O)c2ccccc2C)[C@]2(C)[C@H](C)CC[C@]3(CCC(=O)[C@H]32)[C@@H](C)[C@@H]1O : 13.7

Measured zone of inhibition at 160 µg/mL of C=C[C@]1(C)C[C@@H](OC(=O)CSC(C)(C)CNC(=O)c2ccccc2N)[C@]2(C)[C@H](C)CC[C@]3(CCC(=O)[C@H]32)[C@@H](C)[C@@H]1O : 13.7

Measured zone of inhibition at 160 µg/mL of C=C[C@]1(C)C[C@@H](OC(=O)CSC(C)(C)CNC(=O)OCC(C)C)[C@]2(C)[C@H](C)CC[C@]3(CCC(=O)[C@H]32)[C@@H](C)[C@@H]1O : 9.55

Measured zone of inhibition at 160 µg/mL of C=C[C@]1(C)C[C@@H](OC(=O)CSC(C)(C)CNC(=O)c2ccc(Cl)cc2)[C@]2(C)[C@H](C)CC[C@]3(CCC(=O)[C@H]32)[C@@H](C)[C@@H]1O : 12.9

For each listed entry, give its zone of inhibition at 160 µg/mL.
1. C=C[C@]1(C)C[C@@H](OC(=O)CSC(C)(C)CNC(=O)c2ccccc2Cl)[C@]2(C)[C@H](C)CC[C@]3(CCC(=O)[C@H]32)[C@@H](C)[C@@H]1O
2. C=C[C@]1(C)C[C@@H](OC(=O)CSC(C)(C)CNC(=O)c2ccccc2OC)[C@]2(C)[C@H](C)CC[C@]3(CCC(=O)[C@H]32)[C@@H](C)[C@@H]1O
3. C=C[C@]1(C)C[C@@H](OC(=O)CSC(C)(C)CNC(=O)[C@@H](N)c2ccccc2)[C@]2(C)[C@H](C)CC[C@]3(CCC(=O)[C@H]32)[C@@H](C)[C@@H]1O
4. C=C[C@]1(C)C[C@@H](OC(=O)CSC(C)(C)CNC(=O)c2cccc(C)c2)[C@]2(C)[C@H](C)CC[C@]3(CCC(=O)[C@H]32)[C@@H](C)[C@@H]1O
5. C=C[C@]1(C)C[C@@H](OC(=O)CSCCN(CC)CC)[C@]2(C)[C@H](C)CC[C@]3(CCC(=O)[C@H]32)[C@@H](C)[C@@H]1O [TIAMULIN]

[11.9, 15.5, 9.89, 13.7, 16.5]

For each listed entry, give its zone of inhibition at 160 µg/mL.
1. C=C[C@]1(C)C[C@@H](OC(=O)CSC(C)(C)CNC(=O)c2cc3ccccc3[nH]2)[C@]2(C)[C@H](C)CC[C@]3(CCC(=O)[C@H]32)[C@@H](C)[C@@H]1O
2. C=C[C@]1(C)C[C@@H](OC(=O)CSC(C)(C)CNC(=O)[C@H](N)C(C)C)[C@]2(C)[C@H](C)CC[C@]3(CCC(=O)[C@H]32)[C@@H](C)[C@@H]1O [VALNEMULIN]

1. 9.52
2. 23.7

* * *

# Test system: Streptococcus agalactiae
# experimental_protocol: Antibacterial activity against Streptococcus agalactiae at 80 ug/ml after 24 hrs by Oxford cup assay
# Type: functional
# assay_conditions: read-out: IZ
readout: zone of inhibition at 80 µg/mL (mm)
Numbers only, in mm.

For each listed entry, give its zone of inhibition at 80 µg/mL.
1. C=C[C@]1(C)C[C@@H](OC(=O)CSC(C)(C)CNC(=O)c2ccc(Cl)cc2)[C@]2(C)[C@H](C)CC[C@]3(CCC(=O)[C@H]32)[C@@H](C)[C@@H]1O
2. C=C[C@]1(C)C[C@@H](OC(=O)CSC(C)(C)CNC(=O)c2cccc(N)c2)[C@]2(C)[C@H](C)CC[C@]3(CCC(=O)[C@H]32)[C@@H](C)[C@@H]1O

1. 10.8
2. 8.86
